Cited source: patent US5620676A

Test System: P2Y receptor (turkey erythrocyte membranes) (Meleagris gallopavo, UniProt P49652)
Construct: from tissue; host or cells: washed turkey erythrocytes, ghosts prepared by hypotonic lysis
Sequence (P49652 whole entry): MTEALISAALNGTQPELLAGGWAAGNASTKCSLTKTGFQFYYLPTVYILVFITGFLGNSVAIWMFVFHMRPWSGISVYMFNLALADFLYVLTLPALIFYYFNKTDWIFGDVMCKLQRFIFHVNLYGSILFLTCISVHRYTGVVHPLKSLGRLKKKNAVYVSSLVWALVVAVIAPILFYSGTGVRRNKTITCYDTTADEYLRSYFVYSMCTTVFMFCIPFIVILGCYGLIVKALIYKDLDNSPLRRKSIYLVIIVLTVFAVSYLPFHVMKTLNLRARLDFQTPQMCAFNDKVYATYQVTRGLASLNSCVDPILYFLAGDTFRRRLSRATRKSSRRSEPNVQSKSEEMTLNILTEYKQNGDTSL
Run Description: Stimulation of phospholipase C (inositol phosphate formation) in turkey erythrocyte membranes
Format: biochemical
Condition Set: turkey erythrocyte membranes; mean ± S.E.M. for at least 2 determinations; read-out: phosphatidyl inositol metabolism (K0.5, nM) erythrocyte
For each of the compounds below, state its EC50.
Form entry: value (nM) — number only.

Inquiry: Item Nc1ncnc2c1ncn2[C@@H]1O[C@H](COP(=O)(O)OP(=O)(O)O)[C@@H](O)[C@H]1O [ADP, adenosine 5'-diphosphate, reference compound] has what recorded EC50?
Reply text: 8000

Inquiry: Item `CCSCCSc1nc(N)c2ncn([C@@H]3O[C@H](COP(=O)(O)O)[C@@H](O)[C@H]3O)c2n1` has what recorded EC50?
Reply text: 1000

----------
Test System: P2Y receptor (taenia coli) (Cavia porcellus, UniProt P59902)
Construct: Relaxant responses mediated via P2Y receptors were examined in guinea pig taenia coli; from tissue; host or cells: guinea pig taenia coli (carbachol-contracted)
Sequence (P59902 whole entry): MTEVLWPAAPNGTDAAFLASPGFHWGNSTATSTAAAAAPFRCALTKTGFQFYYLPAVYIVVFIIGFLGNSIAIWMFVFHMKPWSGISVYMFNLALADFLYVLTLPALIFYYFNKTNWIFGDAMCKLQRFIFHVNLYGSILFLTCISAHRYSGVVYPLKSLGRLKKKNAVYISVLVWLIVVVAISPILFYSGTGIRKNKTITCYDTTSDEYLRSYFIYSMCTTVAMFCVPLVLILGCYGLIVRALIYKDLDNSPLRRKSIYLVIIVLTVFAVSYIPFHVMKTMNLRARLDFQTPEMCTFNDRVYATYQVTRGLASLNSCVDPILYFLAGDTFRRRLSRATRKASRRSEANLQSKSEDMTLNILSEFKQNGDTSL
Run Description: Relaxation of carbachol-contracted guinea pig taenia coli
Property: pEC50
Please note pEC50 is a logarithmic value: minus log10 of concentration in mol/L. Answer with that number alone.

Inquiry: Item Nc1ncnc2c1ncn2[C@@H]1O[C@H](COP(=O)(O)OP(=O)(O)OP(=O)(O)O)[C@@H](O)[C@H]1O [ATP, adenosine-5'-triphosphate, reference compound] has what recorded pEC50?
Reply text: 6.20

Inquiry: Item C=CCCCCSc1nc(N)c2ncn([C@@H]3O[C@H](COP(=O)(O)O)[C@@H](O)[C@H]3O)c2n1 [2-(5-Hexenyl)thio-AMP] has what recorded pEC50?
Reply text: 6.00

Inquiry: Item Nc1nc(SCCc2ccc([N+](=O)[O-])cc2)nc2c1ncn2[C@@H]1O[C@H](COP(=O)(O)OP(=O)(O)OP(=O)(O)O)[C@@H](O)[C@H]1O [2-(2-p-Nitrophenylethyl)-thio-ATP] has what recorded pEC50?
Reply text: 7.50

Inquiry: Item Nc1nc(SCCc2ccccc2)nc2c1ncn2[C@@H]1O[C@H](COP(=O)(O)OP(=O)(O)OP(=O)(O)O)[C@@H](O)[C@H]1O [2-Phenylethylthio-ATP, 2-phenylethylthio-ATP] has what recorded pEC50?
Reply text: 7.10

Inquiry: Item C=CCCCCSc1nc(N)c2ncn([C@@H]3O[C@H](COP(=O)(O)OP(=O)(O)O)[C@@H](O)[C@H]3O)c2n1 [2-(5-Hexenyl)thio-ADP] has what recorded pEC50?
Reply text: 8.44

Inquiry: Item CNc1ncnc2c1ncn2[C@@H]1O[C@H](COP(=O)(O)OP(=O)(O)OP(=O)(O)O)[C@@H](O)[C@H]1O [N^6 -Me-ATP, N^6 -Methyl-adenosine 5'-triphosphate] has what recorded pEC50?
Reply text: 5.80

Inquiry: Item Nc1ncnc2c1ncn2[C@@H]1O[C@H](CO)[C@@H](O)[C@H]1O [Adenosine, reference compound] has what recorded pEC50?
Reply text: 3.90

Inquiry: Item C=CCCCCSc1nc(N)c2ncn([C@@H]3O[C@H](COP(=O)(O)OP(=O)(O)OP(=O)(O)O)[C@@H](O)[C@H]3O)c2n1 [2-(S-Hexenyl)thio-ATP] has what recorded pEC50?
Reply text: 7.90

Inquiry: Item CCCCCCSc1nc(N)c2ncn([C@@H]3O[C@H](COP(=O)(O)OP(=O)(O)OP(=O)(O)O)[C@@H](O)[C@H]3O)c2n1 [2-Hexylthio-ATP, 2-hexylthio-ATP] has what recorded pEC50?
Reply text: 7.50

Inquiry: Item CSc1nc(N)c2ncn([C@@H]3O[C@H](COP(=O)(O)OP(=O)(O)OP(=O)(O)O)[C@@H](O)[C@H]3O)c2n1 [2-MeS-ATP, 2-methylthio-ATP] has what recorded pEC50?
Reply text: 8.00

Inquiry: Item N#CCCCCCCSc1nc(N)c2ncn([C@@H]3O[C@H](COP(=O)(O)O)[C@@H](O)[C@H]3O)c2n1 [2-(6-Cyanohexyl)thio-AMP, 2-(6-cyanohexylthio)-AMP] has what recorded pEC50?
Reply text: 4.40

Inquiry: Item Nc1c2ncn([C@@H]3O[C@H](COP(=O)(O)OP(=O)(O)OP(=O)(O)O)[C@@H](O)[C@H]3O)c2nc[n+]1[O-] [Adenosine N1-oxide 5'-triphosphate, adenosine N1-oxide 5'-triphosphate, reference compound] has what recorded pEC50?
Reply text: 4.90

Inquiry: Item Nc1nc(SC2CCCCC2)nc2c1ncn2[C@@H]1O[C@H](COP(=O)(O)OP(=O)(O)OP(=O)(O)O)[C@@H](O)[C@H]1O [2-Cyclohexylthio-ATP, 2-cyclohexylthio-ATP] has what recorded pEC50?
Reply text: 7.80

Inquiry: Item Nc1ncnc2c1ncn2[C@@H]1O[C@H](COP(=O)(O)OP(=O)(O)OP(=O)(O)O)[C@@H](N)[C@H]1O [3'-Amino-3'deoxy-ATP, reference compound] has what recorded pEC50?
Reply text: 5.40

Inquiry: Item N#CCCCCCCSc1nc(N)c2ncn([C@@H]3O[C@H](COP(=O)(O)OP(=O)(O)OP(=O)(O)O)[C@@H](O)[C@H]3O)c2n1 [2-(6-Cyanohexylthio)-ATP] has what recorded pEC50?
Reply text: 8.80

----------
For each of the compounds below, state its activation at 10 µM.
Test System: P2X receptor (saphenous artery) (Oryctolagus cuniculus, UniProt G1U3D6)
Construct: and rabbit saphenous artery; from tissue; host or cells: rabbit saphenous artery
Sequence (G1U3D6 1-399): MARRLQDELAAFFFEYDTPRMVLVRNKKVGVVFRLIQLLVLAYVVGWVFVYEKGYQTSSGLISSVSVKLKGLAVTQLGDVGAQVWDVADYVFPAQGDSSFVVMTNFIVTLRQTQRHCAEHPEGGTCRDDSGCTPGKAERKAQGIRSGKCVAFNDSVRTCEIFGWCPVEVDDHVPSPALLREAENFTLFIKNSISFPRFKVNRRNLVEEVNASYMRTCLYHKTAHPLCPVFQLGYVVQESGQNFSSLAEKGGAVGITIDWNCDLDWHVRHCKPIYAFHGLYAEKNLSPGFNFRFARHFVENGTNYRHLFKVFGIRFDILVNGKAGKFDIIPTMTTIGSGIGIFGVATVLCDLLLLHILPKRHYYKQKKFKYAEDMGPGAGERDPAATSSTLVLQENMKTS
Run Description: Contraction of rabbit saphenous artery
Condition Set: rabbit saphenous artery; 10 μM; read-out: response at 10 μM relative to the contraction produced by 1 μM α,MeATP, saph. artery

Inquiry: Item `N#CCCCCCCSc1nc(N)c2ncn([C@@H]3O[C@H](COP(=O)(O)OP(=O)(O)OP(=O)(O)O)[C@@H](O)[C@H]3O)c2n1` has what recorded activation at 10 µM?
Reply text: 9.2%

Inquiry: Item `C=CCCCCSc1nc(NC)c2ncn([C@@H]3O[C@H](COP(=O)(O)O)[C@@H](O)[C@H]3O)c2n1` has what recorded activation at 10 µM?
Reply text: 6.7%

Inquiry: Item `C=CCCCCSc1nc(NC)c2ncn([C@@H]3O[C@H](COP(=O)(O)OP(=O)(O)OP(=O)(O)O)[C@@H](O)[C@H]3O)c2n1` has what recorded activation at 10 µM?
Reply text: 1.5%

Inquiry: Item `N#CCCCCCCSc1nc(N)c2ncn([C@@H]3O[C@H](COP(=O)(O)O)[C@@H](O)[C@H]3O)c2n1` has what recorded activation at 10 µM?
Reply text: 4.5%

Inquiry: Item `CC1(C)O[C@@H]2[C@H](O1)[C@@H](COP(=O)(O)OP(=O)(O)OP(=O)(O)O)O[C@H]2n1cnc2c(N)ncnc21` has what recorded activation at 10 µM?
Reply text: 7.7%

Inquiry: Item `Nc1nc(SCCc2ccc([N+](=O)[O-])cc2)nc2c1ncn2[C@@H]1O[C@H](COP(=O)(O)OP(=O)(O)OP(=O)(O)O)[C@@H](O)[C@H]1O` has what recorded activation at 10 µM?
Reply text: 2.6%

----------
Test System: P2Y receptor (turkey erythrocyte membranes) (Meleagris gallopavo, UniProt P49652)
Construct: from tissue; host or cells: washed turkey erythrocytes, ghosts prepared by hypotonic lysis
Run Description: Stimulation of phospholipase C (inositol phosphate formation) in turkey erythrocyte membranes
Type: biochemical
Condition Set: turkey erythrocyte membranes; read-out: K0.5
For each of the compounds below, state its pEC50.
Please note pEC50 is a logarithmic value: minus log10 of concentration in mol/L. Answer with that number alone.

Inquiry: For P2Y receptor (turkey erythrocyte membranes) (Meleagris gallopavo, UniProt P49652), provide pEC50 of CSc1nc(N)c2ncn([C@@H]3O[C@H](COP(=O)(O)OP(=O)(O)OP(=O)(O)O)[C@@H](O)[C@H]3O)c2n1 [2-MeS-ATP, 2-methylthio-ATP] please.
Reply text: 8.10

Inquiry: For P2Y receptor (turkey erythrocyte membranes) (Meleagris gallopavo, UniProt P49652), provide pEC50 of Nc1nc(Cl)nc2c1ncn2[C@@H]1O[C@H](COP(=O)(O)OP(=O)(O)OP(=O)(O)O)[C@@H](O)[C@H]1O [2-Cl-ATP, 2-chloro-ATP, reference compound] please.
Reply text: 7.14

----------
Test System: adenylyl cyclase linked P2Y receptor (C6 rat glioma cells) (Rattus norvegicus)
Construct: endogenous in cells; host or cells: C6 rat glioma cells
Sequence (Q9EPX4 whole entry): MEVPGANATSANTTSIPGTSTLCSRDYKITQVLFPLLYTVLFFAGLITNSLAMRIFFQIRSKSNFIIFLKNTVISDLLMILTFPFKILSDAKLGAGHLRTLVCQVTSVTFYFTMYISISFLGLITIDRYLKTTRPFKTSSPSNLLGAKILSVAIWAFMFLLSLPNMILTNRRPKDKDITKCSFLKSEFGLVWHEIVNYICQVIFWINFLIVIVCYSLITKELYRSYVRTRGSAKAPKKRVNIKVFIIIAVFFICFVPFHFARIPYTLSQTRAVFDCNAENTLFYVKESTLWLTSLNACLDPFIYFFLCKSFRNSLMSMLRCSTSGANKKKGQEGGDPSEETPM
Run Description: Inhibition of adenylyl cyclase in C6 rat glioma cells
Assay type: cell-based
Condition Set: versus phospholipase C linked turkey erythrocyte receptor
Property: selectivity for the adenylyl cyclase linked (C6 cell) receptor

Inquiry: Item `C=CCCCCSc1nc(NC)c2ncn([C@@H]3O[C@H](COP(=O)(O)OP(=O)(O)OP(=O)(O)O)[C@@H](O)[C@H]3O)c2n1` has what recorded selectivity for the adenylyl cyclase linked (C6 cell) receptor?
Reply text: 81 -fold

Inquiry: Item `CSc1nc(N)c2ncn([C@@H]3O[C@H](COP(=O)(O)OP(=O)(O)OP(=O)(O)O)[C@@H](O)[C@H]3O)c2n1` has what recorded selectivity for the adenylyl cyclase linked (C6 cell) receptor?
Reply text: 7.3 -fold

Inquiry: Item `N#CCCCCCCSc1nc(N)c2ncn([C@@H]3O[C@H](COP(=O)(O)OP(=O)(O)OP(=O)(O)O)[C@@H](O)[C@H]3O)c2n1` has what recorded selectivity for the adenylyl cyclase linked (C6 cell) receptor?
Reply text: 3.9 -fold

Inquiry: Item Nc1ncnc2c1ncn2[C@@H]1O[C@H](COP(=O)(O)OP(=O)(O)O)[C@@H](O)[C@H]1O [ADP, adenosine 5'-diphosphate, reference compound] has what recorded selectivity for the adenylyl cyclase linked (C6 cell) receptor?
Reply text: 120 -fold

Inquiry: Item `CCCCCCSc1nc(N)c2ncn([C@@H]3O[C@H](COP(=O)(O)OP(=O)(O)OP(=O)(O)O)[C@@H](O)[C@H]3O)c2n1` has what recorded selectivity for the adenylyl cyclase linked (C6 cell) receptor?
Reply text: 170 -fold
